biological target: MDM2 (Homo sapiens, UniProt Q00987); experiment: Competitive fluorescence polarization assay for MDM2; assay type: binding; settings: competitive FP assay, MDM2; read-out: IC50 (MDM2)
Sequence (Q00987 1-125): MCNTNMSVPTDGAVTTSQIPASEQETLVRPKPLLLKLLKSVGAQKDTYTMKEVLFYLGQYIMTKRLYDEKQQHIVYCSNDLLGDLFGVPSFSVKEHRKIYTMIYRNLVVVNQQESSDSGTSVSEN
pIC50: −log10 of the molar value. Where a SMILES comes first, the peptide text is derived from it. Bridges are numbered along the chain shown (N, C = ends). [ ]: non-standard residue; d: D form. Trp(6-Cl) = N[C@@H](Cc1c[nH]c2cc(Cl)ccc12)C(=O)O; dPhe(4-CF3) = N[C@H](Cc1ccc(C(F)(F)F)cc1)C(=O)O; R8 = C=CCCCCCC[C@@](C)(N)C(=O)O; Cha = N[C@@H](CC1CCCCC1)C(=O)O; Cba = N[C@@H](CC1CCC1)C(=O)O; R5 = C=CCCC[C@@](C)(N)C(=O)O; S5 = C=CCCC[C@](C)(N)C(=O)O
PROPERTY MEASURED: pIC50

Past entries and their recorded results:
INSERT INTO assay_data (compound, recorded_result) VALUES
  ('CC(=O)N[C@@H](CC(C)C)C(=O)N[C@H](C(=O)N[C@@H](Cc1ccccc1)C(=O)N[C@]1(C)CCCCCCC=CCCC[C@@](C)(C(=O)N[C@@H](CO)C(=O)N[C@@H](C)C(=O)N[C@@H](Cc2ccccc2)C(N)=O)NC(=O)[C@H](CC2CCC2)NC(=O)[C@H](CCC(N)=O)NC(=O)[C@H](C)NC(=O)[C@H](Cc2c[nH]c3cc(Cl)ccc23)NC(=O)[C@H](Cc2ccc(O)cc2)NC(=O)[C@H](CCC(=O)O)NC1=O)[C@@H](C)O [compound 261] (Ac-LTF[R8]EY[Trp(6-Cl)]AQ[Cba][S5]SAF-NH2; staple 4-11)', '7.00 to 8.00'),
  ('CC(=O)N[C@@H](Cc1ccccc1)C(=O)N[C@]1(C)CCCCCCC=CCCC[C@@](C)(C(=O)N[C@@H](CCCNC(=N)N)C(=O)N[C@@H](CCCNC(=N)N)C(=O)N[C@@H](CC(=O)O)C(=O)N[C@@H](CC2CCCCC2)C(N)=O)NC(=O)[C@H](CC(C)C)NC(=O)[C@H](CCC(N)=O)NC(=O)[C@H](Cc2c[nH]cn2)NC(=O)[C@H](Cc2c[nH]c3ccccc23)NC(=O)[C@H](Cc2c[nH]cn2)NC(=O)[C@H](Cc2c[nH]cn2)NC1=O [compound 30] (Ac-F[R8]HHWHQL[S5]RRD[Cha]-NH2; staple 2-9)', '6.00 to 7.00'),
  ('CC(=O)N[C@@H](C(=O)N[C@]1(C)CCCC=CCCC[C@](C)(C(=O)N[C@H](Cc2ccc(C(F)(F)F)cc2)C(=O)N[C@H](CCC(=O)O)C(=O)N[C@H](CCCCN)C(=O)N[C@H](CC(C)C)C(=O)N[C@H](CC(C)C)C(=O)N[C@H](CCCNC(=N)N)C(N)=O)NC(=O)[C@@H](C)NC(=O)[C@@H](Cc2ccc(O)cc2)NC(=O)[C@@H](Cc2c[nH]c3ccccc23)NC1=O)[C@H](C)O [compound 752] (Ac-[dT][R5][dW][dY][dA][R5][dPhe(4-CF3)][dE][dK][dL][dL][dR]-NH2; staple 2-6)', '6.00 to 7.00');

Read the next record carefully.
What the record says about CC(=O)N[C@@H](CC(C)C)C(=O)N[C@H](C(=O)N[C@@H](Cc1ccccc1)C(=O)N[C@]1(C)CCCCCCC=CCCC[C@@](C)(C(=O)N[C@@H](CO)C(=O)N[C@@H](CCCNC(=N)N)C(=O)N[C@@H](C)C(N)=O)NC(=O)[C@H](CC2CCC2)NC(=O)[C@H](CCC(N)=O)NC(=O)[C@H](C)NC(=O)[C@H](Cc2c[nH]c3ccccc23)NC(=O)[C@H](Cc2ccc(O)cc2)NC(=O)[C@H](CCC(=O)O)NC1=O)[C@@H](C)O [compound 365] (Ac-LTF[R8]EYWAQ[Cba][S5]SRA-NH2; staple 4-11) : pIC50 is 7.00 to 8.00

meta.source: patent US8927500B2
